Hello, the source for this data is patent US8912222B2, in case you need it.

- Test system: insecticide-resistant Myzus persicae strain 4013A
- protocol_summary: Leaf-disc dip bioassay on adult aphids, insecticide-resistant strain (Example IX)
- measurement_conditions: 4013A (R) vs US1L (S) LC50
property_label: Resistance Ratio
Answer using only a numeral; do not append any unit.

molecule: CC1(C)[C@H](C(=O)O[C@H](C#N)c2cccc(Oc3ccccc3)c2)[C@@H]1C=C(Br)Br [Deltamethrin, deltamethrin]
Resistance Ratio: 60
--
molecule: CC(c1ccc(Cl)nc1)S(C)(=O)=NC#N (stereo not drawn) [Compound 5]
Resistance Ratio: 0.2

Ask: Could you share which Resistance Ratio value was measured for O=[N+]([O-])NC1=NCCN1Cc1ccc(Cl)nc1 [Imidacloprid, imidacloprid] ?
Reply: 17

Ask: Could you share which Resistance Ratio value was measured for CC(c1ccc(C(F)(F)F)nc1)S(C)(=O)=NC#N (stereo not drawn) [Compound 2] ?
Reply: 0.4

Ask: Could you share which Resistance Ratio value was measured for CS(=O)(Cc1ccc(Cl)nc1)=NC#N (stereo not drawn) [Compound 4] ?
Reply: 0.7
